Consider the following compounds and their measured T/C readings.
Tested on: BDF1 mice, P388 leukemia ip, median survival T/C
Test: NCI In Vivo Anticancer Drug Screen. Data for tumor model P388 Leukemia (intraperitoneal) in B6D2F1 (BDF1) mice
Details: endpoint: median survival time; dose: 100.0 mg/kg/injection; schedule: Q04DX003 (ip); vehicle: water; higher = longer survival
Toxic doses and inconclusive results are not listed.

Inquiry: Any idea what its T/C is? The compound is CCOC(=O)CNCc1ccc(Cl)c(Cl)c1
Reply text: 113 % of control

Inquiry: Same for O=C(O)CNCc1ccc(Cl)cc1
Reply text: 90 % of control

====

Test system: BDF1 mice, P388 leukemia ip, median survival T/C
Test: NCI In Vivo Anticancer Drug Screen. Data for tumor model P388 Leukemia (intraperitoneal) in B6D2F1 (BDF1) mice
Details: endpoint: median survival time; dose: 12.5 mg/kg/injection; schedule: Q01DX009 (ip); vehicle: saline; higher = longer survival
Toxic doses and inconclusive results are not listed.
Consider the following compounds and their measured T/C readings.

Some solved entries appear below for comparison.
COc1cc2c(cc1OC)C(CCN1C(=O)c3ccccc3C1=O)=NCC2 : 91 % of control
COc1ccc(CN(C)CCN(C)CCN(C)Cc2ccc(OC)cc2)cc1 : 103 % of control
C/C(=N/N(C)C)c1ccc(Br)cc1 : 100 % of control
CCCCCCCCCCCCCC[S+](C)C : 118 % of control
CC(=N\O)/C(C)=N/O.CC(=N\O)/C(C)=N/O.O.[CH3-].[Co] : 97 % of control

Inquiry: Requested read-out T/C, target or system BDF1 mice, P388 leukemia ip, median survival T/C, entry CC(C)C(C=O)C(O)(C(F)(F)F)C(F)(F)Cl (configuration not stated)
Reply text: 95 % of control

Inquiry: Same for CCCCCCCCCCC[N+](C)(C)CC(O)C[N+](C)(C)CCCCCCCCCCC
Reply text: 118 % of control

Inquiry: Same for C=CC(COC(=O)C(C)(C)OC(C)=O)c1ccc(OC(=O)C(C)C)c(OC)c1 (configuration not stated)
Reply text: 100 % of control

Inquiry: Same for CC(C)=CC(=O)OCC[N+](C)(C)C
Reply text: 97 % of control

Inquiry: Same for C[N+](C)(C)CCCSC1=NCCN1
Reply text: 107 % of control

Inquiry: Same for CC(=O)OC1C=CCC2C(=O)C34CC=CC(OC(C)=O)C3(C(=O)c3ccccc3C4=O)C(=O)C12 (configuration not stated)
Reply text: 95 % of control

Inquiry: Same for Nc1nc(N)c2cc(N3CCCC3c3ccc(Cl)cc3)ccc2n1 (configuration not stated)
Reply text: 89 % of control

====

Test system: BDF1 mice, P388 leukemia ip, median survival T/C
Assay: NCI In Vivo Anticancer Drug Screen. Data for tumor model P388 Leukemia (intraperitoneal) in B6D2F1 (BDF1) mice
Settings: endpoint: median survival time; dose: 200.0 mg/kg/injection; schedule: Q01DX005 (ip); vehicle: saline; higher = longer survival
Inconclusive results and toxic doses are left out. Residues, ends and D or L forms follow the SMILES beside them. *: point of attachment. Cbz = O=C(OCc1ccccc1)*
Consider the following molecules and their measured T/C readings.

Some solved entries appear below for comparison.
CCCCCC[C@@H](O)C/C=C\CCCCCCCC(=O)OCCO : 93 % of control
O=C(O)C1CCCN1C(=O)C1CCCN1C(=O)OCc1ccccc1 (stereo not drawn) (Cbz-Pro-Pro-OH; configuration not given here) : 107 % of control
CC(NC(=O)OCc1ccccc1)C(=O)NCCN(C)C (centres undefined) : 100 % of control

Inquiry: Any idea what its T/C is? The molecule is CC1(C)O[C@]2(C)CC[C@@H]1[C@@H](O)[C@@H]2N1CCOCC1
Reply text: 104 % of control
